- System: CCRIS mutagenicity, Ames/micronucleus/aberration tests
- protocol_details: CCRIS mutagenicity studies
- details: Test System: AMES SALMONELLA TYPHIMURIUM; Strain/Indicator: TA100; Metabolic Activation: RAT, LIVER, S-9, AROCLOR 1254 (10%); Method: PREINCUBATION
The source made the active and inactive calls. No rule for the calls is given here.
recorded_metric: mutagenic call

- compound: "Cc1cc(C)cc(N)c1"
  reported_value: "inactive; negative"
- compound: "ClCC(Cl)Cl"
  reported_value: "inactive; negative"
- compound: "Cc1ccc(OCC2CO2)cc1 (stereo not given)"
  reported_value: "active; positive"
- compound: "OC(CCl)CCl"
  reported_value: "active; positive"
- compound: "C[N+](=O)[O-]"
  reported_value: "inactive; negative"
- compound: "COc1cc([N+](=O)[O-])ccc1N=NC(C(C)=O)C(=O)Nc1ccccc1OC (stereo not given)"
  reported_value: "inactive; negative"
- compound: "CN(C)C"
  reported_value: "inactive; negative"
- compound: "CC(N)CN (stereo not given)"
  reported_value: "inactive; negative"
- compound: "CC(=O)/C(C)=N/O"
  reported_value: "inactive; negative"
- compound: "CCCCCCOCC1CO1 (stereo not given)"
  reported_value: "inactive; negative"
- compound: "CN(C)CCN(Cc1ccc(Cl)s1)c1ccccn1"
  reported_value: "inactive; negative"
- compound: "CCN(CC)CCCC(C)Nc1c2ccc(Cl)cc2nc2ccc(OC)cc12 (stereo not given)"
  reported_value: "inactive; negative"
- compound: "c1ccc2c(c1)-c1cccc3c1c-2cc1ccccc13"
  reported_value: "active; positive"
- compound: "O=c1c2ccc3c4c(ccc(c24)c2nc4ccccc4n12)c(=O)n1c2ccccc2nc31"
  reported_value: "inactive; negative"
- compound: "Cc1cccc(C)c1N"
  reported_value: "inactive; negative"

* * *

- System: CCRIS mutagenicity, Ames/micronucleus/aberration tests
- protocol_details: CCRIS mutagenicity studies
- details: Test System: AMES SALMONELLA TYPHIMURIUM; Strain/Indicator: TA98; Metabolic Activation: NONE; Method: STANDARD PLATE
Activity calls are given as the source filed them. No rule for the calls is given here.
Outcome codes: active, inactive

- compound: "O=C(c1ccccc1)[C@H]1O[C@H]1c1ccc(F)cc1"
  class: "inactive"
- compound: "O=C([O-])[C@H](O)[C@@H](O)[C@H](O)[C@H](O)CO.O=C([O-])[C@H](O)[C@@H](O)[C@H](O)[C@H](O)CO.[Mn+2]"
  class: "inactive"
- compound: "C=CC(=O)OCCOCCOC(=O)C=C"
  class: "inactive"
- compound: "CC(C)(C)NC(=O)[C@H]1CC[C@H]2[C@@H]3CC=C4C=C(C(=O)O)CC[C@]4(C)[C@H]3CC[C@]12C"
  class: "inactive"
- compound: "C=C(C)C(=O)OCCOC(=O)C(=C)C"
  class: "inactive"
- compound: "O=C(OCc1ccccc1)c1cccc2cccnc12"
  class: "inactive"
- compound: "O=S(=O)(O)c1cccc2cccnc12"
  class: "inactive"
- compound: "O=[N+]([O-])c1ccc2ccc3cc4c(c5ccc1c2c35)CCCC4O (stereo not drawn)"
  class: "active"
- compound: "ClC1C(Cl)C(Cl)C(Cl)C(Cl)C1Cl (stereo not drawn)"
  class: "inactive"
- compound: "[Pb]"
  class: "inactive"
- compound: "CC(=O)OCCCCONC(=O)c1ccccc1"
  class: "active"
- compound: "CC1(C)C=C(C(=O)O)C(C)(C)N1[O]"
  class: "inactive"
- compound: "CCCCCNc1snc2ccccc12"
  class: "inactive"
- compound: "CN(C)CCCNc1c2ccccc2nc2ccc([N+](=O)[O-])cc12"
  class: "active"
- compound: "CC(C)c1c(C(=O)Nc2ccccc2)c(-c2ccccc2)c(-c2ccc(F)cc2)n1CC[C@@H](O)C[C@@H](O)CC(=O)O"
  class: "inactive"
- compound: "N[C@@H]1C[C@H]1c1ccccc1"
  class: "inactive"
- compound: "O=[N+]([O-])c1ccc2c(ccc3cc([N+](=O)[O-])ccc32)c1"
  class: "active"
- compound: "CC12CCC(=O)NC1=CCC1C2CCC2(C)C(OC(=O)CCCc3ccc(N(CCCl)CCCl)cc3)CCC12 (stereo not drawn)"
  class: "inactive"
- compound: "O=S(=O)(Nc1ccc(Cl)cc1)c1cccc2cccnc12"
  class: "inactive"
- compound: "CCc1cccc2c3c([nH]c12)C(CC)(CC(=O)O)OCC3 (stereo not drawn)"
  class: "inactive"
- compound: "CCc1cc(O)cc2c3c([nH]c12)C(CC)(CC(=O)O)OCC3 (stereo not drawn)"
  class: "active"
- compound: "CCN(CC)CCCC(C)Nc1c2ccc(Cl)cc2nc2ccc(OC)cc12 (stereo not drawn)"
  class: "inactive"
- compound: "CC1(C)CC[C@]2(C(=O)O)CC[C@]3(C)C(=CC[C@@H]4[C@@]5(C)C[C@H](O)[C@H](O)[C@@](C)(C(=O)O)[C@@H]5CC[C@]43C)[C@@H]2C1"
  class: "inactive"
- compound: "Oc1ccccc1-c1ccccc1"
  class: "inactive"
- compound: "CC(C)(Oc1ccc(C(=O)c2ccc(Cl)cc2)cc1)C(=O)O"
  class: "inactive"
- compound: "CCOC(=O)COc1ccc2c(=O)cc(-c3ccccc3)oc2c1"
  class: "inactive"
- compound: "Cc1cc([N+](=O)[O-])c(C)c2c1[nH]c1ccc(O)cc12"
  class: "active"
- compound: "CN(CCO)C(=O)Nc1ccccc1"
  class: "inactive"
- compound: "O=NN1CCC[C@H]1c1cccnc1"
  class: "inactive"
- compound: "O=Cc1ccccc1O"
  class: "inactive"
- compound: "c1cc(-c2cc3ccc(C4=NCCN4)cc3[nH]2)ccc1C1=NCCN1"
  class: "inactive"
- compound: "COC(=O)C12OC1(C)C(C(C)C)OC2=O (stereo not drawn)"
  class: "active"
- compound: "C[C@]12C=CC(=O)C=C1CC[C@@H]1[C@@H]2C(=O)C[C@@]2(C)[C@H]1CC[C@]2(O)C(=O)CO"
  class: "inactive"
- compound: "Cc1cc(Cl)ccc1O"
  class: "inactive"
- compound: "Clc1ccccc1Cl"
  class: "inactive"
- compound: "ONc1ccc(-c2ccccc2)cc1"
  class: "active"
- compound: "O=Nc1c2ccccc2c2ccc3cccc4ccc1c2c43"
  class: "active"
- compound: "N=C(N)c1ccc(-c2cc3ccc(C(=N)N)cc3[nH]2)cc1"
  class: "inactive"

* * *

- Tested on: CCRIS mutagenicity, Ames/micronucleus/aberration tests
- protocol_details: CCRIS mutagenicity studies
- details: Test System: AMES SALMONELLA TYPHIMURIUM; Strain/Indicator: TA100; Metabolic Activation: NONE; Method: STANDARD PLATE
Calls of active or inactive are those of the source. How the calls were made is not given here.

- compound: "Cc1c([N+](=O)[O-])c2ccccc2c2ccc3ccccc3c12"
  mutagenic call: "inactive; negative"
- compound: "C#C[C@]1(O)CC[C@H]2[C@@H]3CCC4=C(CCC(=O)C4)[C@H]3CC[C@@]21C"
  mutagenic call: "inactive; negative"
- compound: "C=C(C)C(=O)OCCOC(=O)C(=C)C"
  mutagenic call: "inactive; negative"

* * *

- System: CCRIS mutagenicity, Ames/micronucleus/aberration tests
- protocol_details: CCRIS mutagenicity studies
- details: Test System: AMES SALMONELLA TYPHIMURIUM; Strain/Indicator: TA1538; Metabolic Activation: NONE; Method: STANDARD PLATE
Activity calls are given as the source filed them. How the calls were made is not given here.
Outcomes: active, inactive

- compound: "COc1cc(N)c(OC)cc1N"
  class: "active"
- compound: "O=C(Cl)c1ccc([N+](=O)[O-])cc1"
  class: "inactive"
- compound: "O=C(O)CC[C@H](NC(=O)COc1cc(Cl)c(Cl)cc1Cl)C(=O)O"
  class: "inactive"
- compound: "COc1cc([N+](=O)[O-])ccc1N=NC(C(C)=O)C(=O)Nc1ccccc1OC (configuration not stated)"
  class: "inactive"
- compound: "CCN(CC)c1ccc2c(-c3ccc(S(=O)(=O)O)cc3S(=O)(=O)[O-])c3ccc(=[N+](CC)CC)cc-3oc2c1"
  class: "inactive"
- compound: "Nc1cccc([N+](=O)[O-])c1O"
  class: "inactive"
- compound: "Cc1cc(N(CCO)CCO)ccc1N=Nc1ccc(N)cc1"
  class: "inactive"
- compound: "CN(C)C(=O)Oc1ccc[n+](C)c1"
  class: "inactive"
- compound: "Nc1ncc([N+](=O)[O-])s1"
  class: "inactive"
- compound: "C1OCOCO1"
  class: "inactive"
- compound: "C#C[C@]1(O)CC[C@H]2[C@@H]3CCC4=C(CCC(=O)C4)[C@H]3CC[C@@]21C"
  class: "inactive"
- compound: "CCN(CCCl)c1ccc(CCCNc2c3ccccc3nc3ccccc23)cc1"
  class: "inactive"

// provenance: PubChem BioAssay AID1259407
